Tested on: INS-1E rat beta cells, no cytokines, CellTiter-Glo ATP, 48 h
assay-summary: cytokine-free beta-cell viability effect – INS-1E rat cells, ATP luminescence, cherry pick, counter-screen for beta-cell apoptosis protection project, dose response (AID 463229)
measured-property: AC50

molecule | AC50
O=C(N/N=C/c1ccc([N+](=O)[O-])s1)C(O)c1ccccc1 (stereo unspecified) | 6.99 µM
c1ccc(C(c2ccccc2)N2CCN(c3nc4ccccc4n4cnnc34)CC2)cc1 | 4.73 µM

Ask | Given COc1ccc(-n2cc(-c3ccc(C)cc3)[n+]3c2SCC3)cc1 , state its recorded AC50.
Reply | 0.924 µM

Ask | Given O=C(NCC1COc2ccccc2O1)c1cccc(S(=O)(=O)NCc2ccccc2)c1 (stereo unspecified) , state its recorded AC50.
Reply | 8.8 µM

Ask | Given COc1ccc(O)c(/C=N/NC(=O)c2cccc(N3CCCC3=O)c2)c1 , state its recorded AC50.
Reply | 14.8 µM

Ask | Given COCCCNC(=O)Cn1nnc(-c2ccc(NC(=O)c3cccnc3)cc2)n1 , state its recorded AC50.
Reply | 5.3 µM

Ask | Given CCc1cc(C(=O)NC2CCCc3c2cnn3-c2cccc(C)c2C)n(C)n1 (stereo unspecified) , state its recorded AC50.
Reply | < 0.195 µM

Ask | Given Cc1cc(C)c2nc(NNC(=O)c3ccc(S(=O)(=O)N4CCCC(C)C4)cc3)sc2c1 (stereo unspecified) , state its recorded AC50.
Reply | 4.52 µM

Ask | Given CCCCCCCCCCOC(=O)Cn1c(COc2ccccc2C)[n+](C)c2ccccc21 , state its recorded AC50.
Reply | 3.22 µM

---

Overview of recorded AC50 for various molecules
Tested on: INS-1E rat beta cells, no cytokines, CellTiter-Glo ATP, 48 h
assay-summary: cytokine-free beta-cell viability effect – INS-1E rat cells, ATP luminescence, cherry pick, counter-screen for beta-cell apoptosis protection project, dose response (AID 463229)

Some molecules with recorded AC50:
molecule | AC50
CSc1nc(-c2ccccc2)nc(C(Cl)Cl)n1 | 3.88 µM
N#Cc1c(N2CCCCC2)nc(N2CCCCC2)c2c1CCN(Cc1ccccc1)C2 | 13.8 µM
Cn1cc(/C=C/c2cc[n+](C)cc2)c2cc(Cl)ccc21 | 4.85 µM
COc1ccccc1N(CC(=O)N/N=C/c1c(O)ccc2ccccc12)S(C)(=O)=O | 7.54 µM
CCN(CC)c1ccc(/C=N/NC(=O)Cc2cccs2)c(O)c1 | 4.5 µM
Cc1ccc2c(c1)S/C(=C/c1ccc[n+](C)c1)N2CCO | 3.24 µM
O=C(Nc1nc(-c2ccccn2)cs1)c1cc(Cl)ccc1[N+](=O)[O-] | 4.6 µM
Cc1cc(O)c2c(c1)C(=O)C13C(=C2O)C(=O)[C@H]2[C@@H](O)[C@@H]1[C@H]1[C@H](O)[C@@H]3C(=O)C3=C(O)c4c(O)cc(C)cc4C(=O)C312 (stereo partly specified) | 4.68 µM
COc1ccc(-c2c([C@H]3[C@H]4C=CC[C@@H](C)[C@@H]4C(=O)N3Cc3ccccc3)ccc3ccccc23)cc1 | 7.67 µM
CC(C)(C)c1ccc(/C=C(\c2nc3ccccc3[nH]2)S(=O)(=O)c2ccccc2)cc1 | 7.37 µM

Ask | Given CC1=CC(=O)C(C(C)C)=C/C1=N/OS(=O)(=O)c1ccccc1 , state its recorded AC50.
Reply | 1.42 µM

Ask | Given COc1ccc(-n2c(-c3ccc(Cl)cc3)c[n+]3c2CCc2ccccc2-3)cc1 , state its recorded AC50.
Reply | 1.78 µM
